# TESTED_TARGET: α4β1 integrin (Homo sapiens (Human), UniProt P05556+P13612)
# Sequence (P13612 34-1032): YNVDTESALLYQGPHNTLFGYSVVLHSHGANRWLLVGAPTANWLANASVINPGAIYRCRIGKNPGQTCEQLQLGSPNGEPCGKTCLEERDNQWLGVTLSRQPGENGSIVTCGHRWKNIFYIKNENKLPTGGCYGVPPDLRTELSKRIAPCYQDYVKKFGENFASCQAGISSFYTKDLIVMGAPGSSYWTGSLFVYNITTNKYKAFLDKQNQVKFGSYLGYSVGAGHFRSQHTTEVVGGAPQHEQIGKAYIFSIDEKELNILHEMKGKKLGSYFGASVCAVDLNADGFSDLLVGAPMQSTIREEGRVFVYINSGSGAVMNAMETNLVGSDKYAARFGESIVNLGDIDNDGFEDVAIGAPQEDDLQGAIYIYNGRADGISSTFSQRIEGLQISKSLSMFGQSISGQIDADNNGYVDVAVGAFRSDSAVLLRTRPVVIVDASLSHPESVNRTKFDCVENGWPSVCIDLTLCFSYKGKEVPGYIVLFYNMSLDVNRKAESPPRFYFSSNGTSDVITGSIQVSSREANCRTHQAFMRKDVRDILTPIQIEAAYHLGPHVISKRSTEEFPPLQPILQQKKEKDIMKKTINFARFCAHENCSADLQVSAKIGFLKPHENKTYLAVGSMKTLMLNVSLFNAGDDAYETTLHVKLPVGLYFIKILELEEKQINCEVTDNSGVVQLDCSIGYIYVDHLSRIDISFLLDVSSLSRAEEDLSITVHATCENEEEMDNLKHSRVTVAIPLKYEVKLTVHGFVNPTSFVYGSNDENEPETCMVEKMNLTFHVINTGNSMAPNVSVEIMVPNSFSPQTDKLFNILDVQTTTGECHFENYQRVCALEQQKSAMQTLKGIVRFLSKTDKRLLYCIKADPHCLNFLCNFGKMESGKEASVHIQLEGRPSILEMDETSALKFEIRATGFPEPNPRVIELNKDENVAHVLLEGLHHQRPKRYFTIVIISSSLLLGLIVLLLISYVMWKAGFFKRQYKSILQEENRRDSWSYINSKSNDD
# Sequence (P05556 21-798): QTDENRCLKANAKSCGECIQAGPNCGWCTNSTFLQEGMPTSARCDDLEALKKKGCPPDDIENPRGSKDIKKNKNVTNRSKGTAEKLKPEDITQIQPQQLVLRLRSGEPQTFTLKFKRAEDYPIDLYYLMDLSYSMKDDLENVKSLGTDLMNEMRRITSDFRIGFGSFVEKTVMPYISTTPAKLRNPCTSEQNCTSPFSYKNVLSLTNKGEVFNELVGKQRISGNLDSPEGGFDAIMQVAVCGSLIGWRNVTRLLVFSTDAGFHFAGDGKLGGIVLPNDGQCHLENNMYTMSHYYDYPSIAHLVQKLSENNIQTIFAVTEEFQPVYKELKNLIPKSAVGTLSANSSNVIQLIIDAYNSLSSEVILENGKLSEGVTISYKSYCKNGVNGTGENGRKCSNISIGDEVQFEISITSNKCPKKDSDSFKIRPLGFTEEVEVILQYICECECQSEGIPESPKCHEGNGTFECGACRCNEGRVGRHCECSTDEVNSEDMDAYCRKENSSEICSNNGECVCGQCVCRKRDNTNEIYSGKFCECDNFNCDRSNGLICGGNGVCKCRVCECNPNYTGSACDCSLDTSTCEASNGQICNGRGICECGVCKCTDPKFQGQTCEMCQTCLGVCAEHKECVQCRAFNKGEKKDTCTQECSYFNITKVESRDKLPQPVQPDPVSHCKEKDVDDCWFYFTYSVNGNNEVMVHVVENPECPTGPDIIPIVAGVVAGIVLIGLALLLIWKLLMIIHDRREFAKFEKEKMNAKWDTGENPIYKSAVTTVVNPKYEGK
# PROTOCOL_DETAILS: Integrin Adhesion Assay: Protocol 2 (VCAM-coated plate, Jurkat cells, CellTiter GLO readout)
# Type: cell-based
# EXPERIMENTAL_CONDITIONS: determined by at least one of the assays described (protocol not specified)
PROPERTY: IC50

Below, 8 molecules whose answers are already recorded.
>>> df
                                   molecule  value_measured
0  Cn1ccc(=O)n(-c2cccc3c(C[C@H](NC(=O)c4ccc5cc(C(=O)N6CCC[C@@H]6c6ccccc6)ccc5c4)C(=O)O)cccc23)c1=O          > 1 µM
1  Cn1ccc(=O)n(-c2cccc3c(C[C@H](NC(=O)c4c(F)cc(NCC(F)(F)F)cc4F)C(=O)O)cccc23)c1=O          > 1 µM
2  Cn1ccc(=O)n(-c2cccc3c(C[C@H](NC(=O)C4C(C)(C)CN(CC(F)(F)F)CC4(C)C)C(=O)O)cccc23)c1=O          > 1 µM
3  CC(C)CN1CCC(C)(C(=O)N[C@@H](Cc2cccc3c(-n4c(=O)ccn(C)c4=O)cccc23)C(=O)O)CC1          > 1 µM
4  Cn1ccc(=O)n([C@@H]2CCc3c(C[C@H](NC(=O)c4c(F)cccc4F)C(=O)O)cccc32)c1=O (single isomer, unassigned)          > 1 µM
5  O=C(N[C@@H](Cc1cccc2c(-c3nccc4ccncc34)cccc12)C(=O)O)c1c(F)cc(N2CCOC[C@H]2CC(F)F)cc1F          > 1 µM
6  Cn1ccc(C(F)(F)F)c(-c2nccc3c(C[C@H](NC(=O)c4c(F)cc(N5CCOC[C@@H]5C(F)(F)F)cc4CN4CCOCC4)C(=O)O)cccc23)c1=O          > 1 µM
7  CCCS(=O)(=O)Nc1ccc(F)c(C(=O)N[C@@H](Cc2cccc3c(-n4c(=O)ccn(C)c4=O)cccc23)C(=O)O)c1F     0.1 to 1 µM

For this molecule ( Cn1ccc(=O)n(-c2cccc3c(C[C@H](NCc4ccccc4)C(=O)O)cccc23)c1=O ), measured IC50 is > 1 µM

For this molecule ( Cn1ccc(=O)n(-c2cccc3c(C[C@H](NCc4ccc(N5CCOCC5)cc4)C(=O)O)cccc23)c1=O ), measured IC50 is > 1 µM

For this molecule ( CN1CCN(Cc2cc(N3CCOC[C@@H]3C(F)(F)F)cc(F)c2C(=O)N[C@@H](Cc2cccc3c(-c4c(C(F)(F)F)ccn(C)c4=O)nccc23)C(=O)O)CC1 ), measured IC50 is > 1 µM

For this molecule ( Cn1ccc(=O)n(-c2cccc3c(C[C@H](NC(=O)c4c(F)cc(N5CCOC[C@@H]5C(F)(F)F)cc4CN4CCCC4)C(=O)O)cccc23)c1=O ), measured IC50 is 0.1 to 1 µM

For this molecule ( Cn1ccc(=O)n(-c2cccc3c(C[C@H](NC(=O)c4c(F)cc5cnn(CC(F)(F)F)c5c4F)C(=O)O)cccc23)c1=O ), measured IC50 is 0.1 to 1 µM

Taken from patent US20250313535A1.
